# Tested on: XF498
# test_details: NCI tumour cell line growth inhibition, 48 h
Activity calls are given as the source filed them. Cut-off read from the data, not from the text of the source: active = GI50 up to about 1.1 µM and inactive = higher.
Recorded measurements of GI50, one per entry

// sample `CCOC(=N)/C(=C1\OC(=N)C(c2ccc(Cl)cc2)=C1O)c1ccc(Cl)cc1` , its GI50 was 11.4 µM (inactive)

// sample `Cn1c(=O)c(/N=N/c2c(=O)n(C)c(=O)n3c2[nH]c2ccccc23)c2[nH]c3ccccc3n2c1=O` , its GI50 was > 100 µM (inactive)

// sample COc1cc(C(C)O)c[n+](CCC2CNc3ccccc32)c1 (configuration not stated) , its GI50 was > 100 µM (inactive)

// sample `COc1cc(-c2nccc3cc(OC)c(OC)cc23)ccc1O` , its GI50 was 25.4 µM (inactive)

// sample `Cc1nc(N2N=C(c3ccc(Cl)cc3)CCC2=O)sc1[N+](=O)[O-]` , its GI50 was > 100 µM (inactive)

// sample COc1cc(O)c2c(c1)C(=O)c1cc3c(c(O)c1C2=O)C(OC1OC(C)C(O)C(O)C1OC)C(OC)C(C)(O)C3=O (configuration not stated) , its GI50 was 3.95 µM (inactive)

// sample `NS(=O)(=O)c1ccc(NC(=O)c2cccn3c(=O)c4ccccc4nc23)cc1` , its GI50 was > 100 µM (inactive)

###

Recorded measurements of GI50, one per entry
# Tested on: CCRF-CEM
# test_details: NCI tumour cell line growth inhibition, 48 h
Activity calls are given as the source filed them. No stated cut-off is given here; in the data, active = GI50 up to about 1.1 µM and inactive = higher.

O=C(c1ccccc1)C(C(=O)c1ccccc1)c1nc2ccccc2sc1=O : 6.24 µM (inactive)
CC(C)=CC1CC(=O)C1(C)Sc1ccccc1 (stereo unspecified) : 19.1 µM (inactive)
C=C1CC(O)C2C(=C)C(=O)OC2C2C(C)C(=O)CC12 (stereo unspecified) : 4.08 µM (inactive)
CN(C)C(=O)c1ccc([N+](=O)[O-])cc1 : > 100 µM (inactive)
O=C(NC(=S)Nc1ccc([N+](=O)[O-])cc1)c1ccc2c(c1)Sc1ccccc1O2 : > 100 µM (inactive)

// switching to the query compound
Tested on CCRF-CEM: C/C=C(/CCC1NCCC2c3ccccc3NC12)[Si](C)(C)C (stereo unspecified) . Observed GI50: 3.6 µM (inactive)

###

Recorded measurements of GI50, one per entry
# Tested on: HOP-18
# test_details: NCI tumour cell line growth inhibition, 48 h
Calls of active or inactive are those of the source. No stated cut-off is given here; in the data, active = GI50 up to about 1.1 µM and inactive = higher.

O=C(Nc1c(O)[nH]c(=S)[nH]c1=O)c1ccco1 : > 100 µM (inactive)
C/C=C(/CCC1NCCC2c3ccccc3NC12)[Si](C)(C)C (centres undefined) : 13.7 µM (inactive)
COc1ccc(O)cc1C=O : > 100 µM (inactive)

// switching to the query compound
Tested on HOP-18: O=C(Nc1cccc(C(F)(F)F)c1)C(=O)C1NC(=S)NC1=O (centres undefined) . Observed GI50: > 100 µM (inactive)

###

# Tested on: OVCAR-4
# test_details: NCI tumour cell line growth inhibition, 48 h
The source made the active and inactive calls. Rule as the data show it: active = GI50 up to about 1.1 µM and inactive = higher.
assay_metric: GI50

O=c1c(NCc2ccccc2)c(C2(c3ccccc3F)SCCCS2)c1=O : > 100 µM (inactive)
N#C[BH2-][n+]1ccc(C(=O)NNCC(F)(F)F)cc1 : > 100 µM (inactive)
CCOC1NC(=O)c2ccccc21 (stereo not given) : > 100 µM (inactive)
Cc1nnc([C@@]2(C)CC[C@H]3[C@@H](CC=C4C[C@@H](O)CC[C@@]43C)[C@@H]2CC#N)o1 : > 100 µM (inactive)

// sample C=C1C(=O)OC2/C=C(\C(=O)O)CC/C=C(\C)CC(OC(=O)/C=C(\C)CC)C12 (stereo not given) , its GI50 was 16.9 µM (inactive)

// sample COC(=O)C1(Cc2ccc3c(c2)CCC3)Cc2ccc3c(c2C1=O)CCC3 (stereo not given) , its GI50 was 7.73 µM (inactive)

// sample `CC(C)=NN/C(=N\c1ccc(Cl)cc1)NS(=O)(=O)c1cc(Cl)c(Oc2ccc([N+](=O)[O-])cc2Cl)c(Cl)c1` , its GI50 was 67.3 µM (inactive)

// sample `O=Cc1c(Cn2ccnc2)c2cc([N+](=O)[O-])ccc2n1Cc1ccccc1` , its GI50 was > 100 µM (inactive)

// sample `Nc1ncnc2c1ccn2CC=C(CO)CO` , its GI50 was > 100 µM (inactive)

###

# System: NCI/ADR-RES
# test_details: NCI tumour cell line growth inhibition, 48 h
Active and inactive are the calls of the source. Rule as the data show it: active = GI50 up to about 1.1 µM and inactive = higher.
Use one of these outcomes when replying: class 1 (active), class 0 (inactive)

COc1ccc(C[C@H]2NC[C@H](OC(C)=O)[C@H]2OC(C)=O)cc1 : class 1
COC(=O)CCC1=CCC2(SC)C(=O)Nc3cccc1c32 (configuration not stated) : class 0
CS(=O)(=O)N1CC(CI)c2ccc(O)cc21 (configuration not stated) : class 0
CC(C)[C@H](C)/C=C/[C@@H](C)C1CC[C@H]2[C@@]34C=C[C@]5(C[C@@H](O)CC[C@]5(C)[C@H]3CC[C@]12C)OO4 (some centres not stated) : class 0

So what was the verdict on `C[C@@H](NC(=O)Cn1c(Cl)nc2ccccc21)c1ccccc1` in this test? class 0

So what was the verdict on COc1cc(C2S/C(=C/c3ccccc3)C(=O)N2c2cccc(NC(C)=O)c2)cc(OC)c1OC (configuration not stated) in this test? class 0

So what was the verdict on `CN(C)/C=N/c1c2ccccc2nc2ccccc12` in this test? class 0

###

Recorded measurements of GI50, one per entry
# Tested on: SF-268
# test_details: NCI tumour cell line growth inhibition, 48 h
Activity calls are given as the source filed them. Cut-off read from the data, not from the text of the source: active = GI50 up to about 1.1 µM and inactive = higher.

CCOC(=O)c1nc2cc(C(F)(F)F)ccc2nc1Nc1ccc(OC)c(OC)c1 : > 100 µM (inactive)
c1cc2cc(Cc3ccc4[nH]ccc4c3)ccc2[nH]1 : 20.6 µM (inactive)
N#Cc1nnc2c3c(-c4ccc(Cl)cc4)c(C#N)c(O)nc3nn2c1N : 3.26 µM (inactive)

// sample `COc1oc(C(=O)NC2CCCCC2)c(-c2ccc(Cl)cc2)c1S(=O)(=O)c1ccccc1` , its GI50 was 3.46 µM (inactive)

// sample `COc1ccc(O)cc1C=O` , its GI50 was > 100 µM (inactive)

// sample COc1ccc(NC2C(=O)C3(C)CCC2C3(C)C)cc1 (stereo unspecified) , its GI50 was > 100 µM (inactive)

// sample CC(=O)OC1C[C@@H](C)C2(CC(c3ccoc3)OC2=O)C2CCC(O)C3(CO3)C12CO (stereo partly specified) , its GI50 was > 100 µM (inactive)

// sample `Cn1c(=O)c(/N=N/c2c(=O)n(C)c(=O)n3c2[nH]c2ccccc23)c2[nH]c3ccccc3n2c1=O` , its GI50 was 46.2 µM (inactive)

// sample `O=C1Nc2ccc(Br)cc2/C1=N/c1ccc2c(c1)OCO2` , its GI50 was 35.2 µM (inactive)

###

# System: SF-539
# test_details: NCI tumour cell line growth inhibition, 48 h
The source made the active and inactive calls. Cut-off read from the data, not from the text of the source: active = GI50 up to about 1.1 µM and inactive = higher.
Use one of these outcomes when replying: active, inactive

Below, 2 compounds whose answers are already recorded.
CC1=NN(c2nc(N)nc(/C(C#N)=C\c3ccc([N+](=O)[O-])s3)n2)C(C)(C)C1 : active
O=C1Nc2ccc(Br)cc2/C1=N/c1ccc2c(c1)OCO2 : inactive

So what was the verdict on `Nc1ncnc2c1ccn2CC=C(CO)CO` in this test? inactive

So what was the verdict on COC(=O)C1(Cc2ccc3c(c2)CCC3)Cc2ccc3c(c2C1=O)CCC3 (stereo not given) in this test? inactive

So what was the verdict on `NC(=O)NC(=O)c1cccc(NC(=O)CBr)c1` in this test? active

###

Recorded measurements of GI50, one per entry
# System: DLD-1
# test_details: NCI tumour cell line growth inhibition, 48 h
Calls of active or inactive are those of the source. Rule as the data show it: active = GI50 up to about 1.1 µM and inactive = higher.

Consider the following illustrative entries.
Cc1ccc(NC(=O)c2cc3cc(/N=N/c4ccccc4C(=O)O)ccc3oc2=O)cc1 : 41 µM (inactive)
CC(c1ccccc1)/[N+]([O-])=C/c1ccccc1 (configuration not stated) : > 100 µM (inactive)
O=C1c2c(c3c4ccccc4[nH]c3c3[nH]c4ccccc4c23)C(=O)N1Cc1ccccc1 : 3.64 µM (inactive)

// sample `CN(C)c1nnnn1-c1c(N)n(C)c(=O)n(C)c1=O` , its GI50 was > 100 µM (inactive)

// sample O=C(NC(Cc1ccc(I)cc1)C(=O)O)c1ccc(Cl)cc1 (configuration not stated) , its GI50 was > 100 µM (inactive)

// sample CC12O[C@H](c3ccccc3)[C@H](c3ccccc3)N1C(=O)C1(C(=O)OCc3ccccc3)CC12 (some centres not stated) , its GI50 was 88.1 µM (inactive)

// sample `N#Cc1ccccc1/C=N/O` , its GI50 was > 93.8 µM (inactive)

// sample O=C(CCN1CCCCC1CCO)Nc1ccc2c(c1)C(=O)c1ccc(NC(=O)CCN3CCCCC3CCO)cc1C2=O (configuration not stated) , its GI50 was 2.19 µM (inactive)
